Cited source for all entries: ChEMBL document CHEMBL3390842

Target: G-protein coupled receptor 35 (Homo sapiens, UniProt Q9HC97)
Sequence (Q9HC97 whole entry): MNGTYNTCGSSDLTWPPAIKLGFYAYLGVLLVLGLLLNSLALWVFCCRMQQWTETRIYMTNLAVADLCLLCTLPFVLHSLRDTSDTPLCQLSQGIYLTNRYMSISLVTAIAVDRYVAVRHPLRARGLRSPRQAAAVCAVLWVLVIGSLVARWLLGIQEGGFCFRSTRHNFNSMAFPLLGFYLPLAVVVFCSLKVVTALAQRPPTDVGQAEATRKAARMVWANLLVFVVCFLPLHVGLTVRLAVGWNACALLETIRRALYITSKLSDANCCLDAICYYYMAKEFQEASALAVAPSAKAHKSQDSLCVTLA
Type: cell-based, U2OS
readout kind: EC50 (µM)
Respond with the bare value in µM.

Tell me its EC50 given "CC(=O)C(=Cc1cc(O)c(O)c([N+](=O)[O-])c1)C(C)=O" as the entry.
17.1

Tell me its EC50 given "O=C(c1cc(O)c(O)c([N+](=O)[O-])c1)c1ccccc1F" as the entry.
54.4

Tell me its EC50 given "CCN(CC)C(=O)/C(C#N)=C/c1cc(O)c(O)c([N+](=O)[O-])c1" as the entry.
65.6
